- ASSAY_SYSTEM: human PPARα (Homo sapiens)
- Sequence (Q07869 167-468): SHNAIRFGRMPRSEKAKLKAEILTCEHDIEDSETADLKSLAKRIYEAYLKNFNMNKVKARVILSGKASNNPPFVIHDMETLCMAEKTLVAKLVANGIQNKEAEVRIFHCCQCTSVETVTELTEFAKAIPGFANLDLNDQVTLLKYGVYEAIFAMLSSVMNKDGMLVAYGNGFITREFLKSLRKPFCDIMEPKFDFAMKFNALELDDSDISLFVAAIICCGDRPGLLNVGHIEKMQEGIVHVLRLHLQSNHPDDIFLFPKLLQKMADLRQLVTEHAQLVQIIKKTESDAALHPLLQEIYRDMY
- ASSAY_REMARKS: PPARα reporter cell line assay (stably transfected HEK cells, GR-GAL4-PPARα fusion protein, firefly luciferase reporter)
- COND: agonist activity in HEK PPARα reporter cell line; 24 h incubation; luciferase luminescence
The following molecules are shown together with reported pEC50 values.
Please report pEC50 as the negative decimal logarithm of the molar concentration, giving only the number.

Look over these answered cases.
MOLECULE | pEC50
Cc1cccc(-c2nc(CO[C@H]3CCC[C@@H](OCc4cccc(C)c4C(=O)O)C3)c(C)o2)c1 | 9.40
COc1ccc(-c2nc(CO[C@H]3CCC[C@@H](OCc4cccc(C)c4C(=O)O)C3)c(C)o2)cc1OC | 9.34
Cc1cccc(CO[C@@H]2CCC[C@H](OCc3nc(-c4ccc(F)cc4)oc3C)C2)c1C(=O)O (stereo in doubt) | 10.40

Attention now shifts to the item below.
Enquiry: Quick one: pEC50 of Cc1cccc(CC[C@H]2CCC[C@H](OCc3coc(-c4ccc(F)cc4)n3)C2)c1C(=O)O (racemic) ?
Return: 8.85

====

- ASSAY_SYSTEM: human PPARα (Homo sapiens, UniProt Q07869)
- ASSAY_REMARKS: PPARα reporter cell line assay (stably transfected HEK cells, GR-GAL4-PPARα fusion protein, firefly luciferase reporter)
- COND: agonist activity in HEK PPARα reporter cell line; 24 h incubation; luciferase luminescence
MEASURED_PARAMETER: EC50 (nM)
Write the number in nM without appending the unit.

COMPOUND | MEASURE_UNIT | EC50
Cc1ccc(-c2nc(CO[C@@H]3CCC[C@H](OCc4cccc(C)c4C(=O)O)C3)c(C)o2)cc1 | nM | 0.56
Cc1cccc(CO[C@@H]2CCC[C@H](OCc3nc(-c4ccc(Cl)cc4)oc3C)C2)c1C(=O)O | nM | 0.1

Enquiry: Query EC50 on human PPARα (Homo sapiens, UniProt Q07869) for Cc1cccc(CO[C@H]2CCC[C@@H](OCc3nc(-c4ccc(F)cc4)oc3C)C2)c1C(=O)O (stereo in doubt)
Return: 0.5

Enquiry: Hi! What's the reported EC50 for COc1ccc(-c2nc(CO[C@@H]3CCC[C@H](OCc4cccc(C)c4C(=O)O)C3)c(C)o2)cc1 on human PPARα (Homo sapiens, UniProt Q07869)?
Return: 1.1

====

This listing pairs molecules with measured pEC50.
- ASSAY_SYSTEM: human PPARα (Homo sapiens, UniProt Q07869)
- Sequence (Q07869 167-468): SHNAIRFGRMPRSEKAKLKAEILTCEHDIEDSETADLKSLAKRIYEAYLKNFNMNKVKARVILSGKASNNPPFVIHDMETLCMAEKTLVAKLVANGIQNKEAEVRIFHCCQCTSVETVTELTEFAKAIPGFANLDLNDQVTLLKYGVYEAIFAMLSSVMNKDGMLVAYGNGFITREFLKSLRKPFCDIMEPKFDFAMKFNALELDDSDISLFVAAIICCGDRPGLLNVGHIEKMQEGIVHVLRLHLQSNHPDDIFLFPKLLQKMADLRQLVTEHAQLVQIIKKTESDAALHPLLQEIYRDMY
- ASSAY_REMARKS: PPARα reporter cell line assay (stably transfected HEK cells, GR-GAL4-PPARα fusion protein, firefly luciferase reporter)
- COND: agonist activity in HEK PPARα reporter cell line; 24 h incubation; luciferase luminescence
Friendly reminder that pEC50 comes from taking -log10 of the concentration in mol/L.

MOLECULE | MEASURED_PARAMETER | VALUE_REPORTED
Cc1cccc(CO[C@@H]2CCC[C@H](OCc3nc(-c4cccc(OC(F)(F)F)c4)oc3C)C2)c1C(=O)O [LVII] | pEC50 | 9.89
Cc1cccc(COC[C@@H]2CCC[C@H](OCc3coc(-c4ccc(F)cc4)n3)C2)c1C(=O)O (racemic) [XXV] | pEC50 | 8.89
Cc1cccc(CO[C@H]2CCC[C@@H](OCc3coc(-c4ccccc4)n3)C2)c1C(=O)O (single isomer, unassigned) [VI] | pEC50 | 9.74
COc1cccc(-c2nc(CO[C@H]3CCC[C@@H](OCc4cccc(C)c4C(=O)O)C3)c(C)o2)c1 [IL] | pEC50 | 9.28

Enquiry: Tell me reported pEC50 for Cc1cccc(CO[C@@H]2CCC[C@H](OCc3nc(-c4ccc(C(C)C)cc4)oc3C)C2)c1C(=O)O [Example LXIX] , tested with human PPARα (Homo sapiens, UniProt Q07869).
Return: 9.96

Enquiry: Give pEC50 (human PPARα (Homo sapiens, UniProt Q07869)) of the following molecule: Cc1ccc(-c2nc(CO[C@H]3CCC[C@@H](OCc4cccc(C)c4C(=O)O)C3)c(C)o2)c(C)c1 [LV]
Return: 10.05

Enquiry: Reported pEC50 for human PPARα (Homo sapiens, UniProt Q07869), given Cc1ccc(-c2nc(CO[C@H]3CCC[C@@H](OCc4cccc(C)c4C(=O)O)C3)c(C)o2)cc1C [LIV] ?
Return: 10.10

====

- ASSAY_SYSTEM: UniProt Q07869
- ASSAY_REMARKS: PPARα reporter cell line assay (stably transfected HEK cells, GR-GAL4-PPARα fusion protein, firefly luciferase reporter)
- COND: agonist activity in HEK PPARα reporter cell line; 24 h incubation; luciferase luminescence
MEASURED_PARAMETER: EC50 (nM)
Provide the reading as a plain figure in nM.

Answered cases to consult:
COMPOUND | EC50 (nM)
Cc1cccc(CO[C@@H]2CCC[C@H](OCc3nc(-c4cccc(Br)c4)oc3C)C2)c1C(=O)O [LXVI] | 0.48
Cc1cccc(CO[C@H]2CCC[C@@H](OCc3nc(-c4ccccc4)oc3C)C2)c1C(=O)O [Example LXI] | 10
Cc1cccc(CO[C@@H]2CCC[C@H](OCc3nc(-c4cccc(C#N)c4)oc3C)C2)c1C(=O)O [LIX] | 0.62

Turning to the following compound.
Enquiry: Notebook entry, UniProt Q07869 assay: EC50 of Cc1ccccc1-c1nc(CO[C@H]2CCC[C@@H](OCc3cccc(C)c3C(=O)O)C2)c(C)o1 [LVI] = ?
Return: 0.54

====

- ASSAY_SYSTEM: human PPARα (Homo sapiens)
- ASSAY_REMARKS: PPARα reporter cell line assay (stably transfected HEK cells, GR-GAL4-PPARα fusion protein, firefly luciferase reporter)
- COND: agonist activity in HEK PPARα reporter cell line; 24 h incubation; luciferase luminescence
MEASURED_PARAMETER: EC50 (nM)
Express your answer in nM, writing the number without its unit.

Completed entries (count: 4):
COMPOUND | ASSAY_SYSTEM | EC50 [nM]
Cc1cccc(CO[C@@H]2CCC[C@H](OCc3nc(-c4ccccc4)oc3C)C2)c1C(=O)O | human PPARα (Homo sapiens) | 0.2
Cc1cccc(CO[C@@H]2CCC[C@H](OCc3coc(-c4ccc(F)cc4)n3)C2)c1C(=O)O (relative stereo) | human PPARα (Homo sapiens) | 0.3
Cc1cccc(COC2C=CC(OCc3coc(-c4ccc(F)cc4)n3)C2)c1C(=O)O (centres unmarked) | human PPARα (Homo sapiens) | 16
Cc1ccc(-c2nc(CO[C@H]3CCC[C@@H](OCc4cccc(C)c4C(=O)O)C3)co2)cc1 (stereo in doubt) | human PPARα (Homo sapiens) | 0.04

Now for a further compound.
Enquiry: Name the reported EC50 value associated with the compound COc1ccc(-c2nc(CO[C@H]3CCC[C@@H](OCc4cccc(C)c4C(=O)O)C3)c(C)o2)cc1C
Return: 0.24
